System: L1210 leukemia ip in BDF1 mice, survival T/C
Test: NCI In Vivo Anticancer Drug Screen. Data for tumor model L1210 Leukemia (intraperitoneal) in B6D2F1 (BDF1) mice
Details: endpoint: mean survival time; dose: 50.0 mg/kg/injection; schedule: Q01DX009 (ip); vehicle: saline with Tween-80; higher = longer survival
Toxic doses and inconclusive results are not listed.
Observation type: T/C

Given `Cc1ccc(N)c(Br)c1` , respond with its T/C.
99 % of control

Given `Oc1c(Cl)cc(Cl)c2cccnc12` , respond with its T/C.
92 % of control

Given `O=C1Nc2ccccc2/C1=C/C(=O)c1c[nH]c2ccccc12` , respond with its T/C.
101 % of control

Given `O=[N+]([O-])c1ccc(Sc2ccc([N+](=O)[O-])cc2)cc1` , respond with its T/C.
92 % of control

Given `CCOc1ccc(Nc2cc([N+](=O)[O-])ccc2C(=O)O)cc1` , respond with its T/C.
103 % of control

Given `Cc1nc(N)c(N)nc1C` , respond with its T/C.
101 % of control

Given `COc1cc(N)c([N+](=O)[O-])c(OC)c1` , respond with its T/C.
104 % of control

Given CSC1CCCCC1O (stereo unspecified) , respond with its T/C.
89 % of control

Given `O=C1SC2(CCCCC2)SC1=O` , respond with its T/C.
110 % of control

Given `CCOC(=O)CCSC` , respond with its T/C.
100 % of control

Given `Fc1ccc(N2CCNCC2)cc1` , respond with its T/C.
107 % of control

---

Test system: L1210 leukemia ip in BDF1 mice, survival T/C
Assay: NCI In Vivo Anticancer Drug Screen. Data for tumor model L1210 Leukemia (intraperitoneal) in B6D2F1 (BDF1) mice
Details: endpoint: mean survival time; dose: 150.0 mg/kg/injection; schedule: Q01DX001 (ip); vehicle: saline; higher = longer survival
Toxic doses and inconclusive results are not listed. Bridge positions count the residues as written; N and C are the ends. Peptide text beside a SMILES is read from it. I, II: the chains in the order shown.
Observation type: T/C

Enter T/C (test system L1210 leukemia ip in BDF1 mice, survival T/C) for `O=c1[nH]c(Cl)ncc1F`
96 % of control

Enter T/C (test system L1210 leukemia ip in BDF1 mice, survival T/C) for NCC(=O)NC(CSSCC(NC(=O)CN)C(=O)O)C(=O)O (stereo not drawn) (I: H-Gly-Cys-OH / II: H-Gly-Cys-OH; disulfide I:2-II:2; configuration not given here)
102 % of control

Enter T/C (test system L1210 leukemia ip in BDF1 mice, survival T/C) for `CCCCCC(=O)NC1CCCCC1`
89 % of control

---

Answer each item with its documented T/C.
Tested on: L1210 leukemia ip in BDF1 mice, survival T/C
Assay: NCI In Vivo Anticancer Drug Screen. Data for tumor model L1210 Leukemia (intraperitoneal) in B6D2F1 (BDF1) mice
Settings: endpoint: mean survival time; dose: 200.0 mg/kg/injection; schedule: Q01DX001 (ip); vehicle: saline; higher = longer survival
Inconclusive results and toxic doses are left out.

Given `Cc1ccc(S(=O)(=O)N/N=C2/C3CC4C(C3)C24)cc1` , respond with its T/C.
88 % of control

Given `COCCC(=O)COC` , respond with its T/C.
91 % of control

Given CC(C)OC(=O)C(C)OC(=O)C1CCCCC1 (stereo not given) , respond with its T/C.
97 % of control

Given `CCOC(C[N+](C)(C)CCC[N+](C)(C)CC(OCC)OCC)OCC` , respond with its T/C.
96 % of control

Given `CN(C)c1ccc(C=Nc2cc([N+](=O)[O-])ccc2O)cc1` , respond with its T/C.
92 % of control

Given `[O-][n+]1c2ccccc2nn1-c1ccccc1` , respond with its T/C.
96 % of control

Given `CNC(=O)n1ncc2ccc([N+](=O)[O-])cc21` , respond with its T/C.
107 % of control

Given `O=S(=O)(ON=C1C=CC(=NOS(=O)(=O)c2ccccc2)C=C1)c1ccccc1` , respond with its T/C.
93 % of control

Given CCOC(=O)C1C2CCCCC21 (stereo not given) , respond with its T/C.
96 % of control

Given `C=C(Cl)COC(=S)S` , respond with its T/C.
103 % of control

Given `O=c1c(=NNc2ccccc2)c(=O)c2ccccc12` , respond with its T/C.
88 % of control

Given `O=C(Nc1ccc(Cl)c(Cl)c1)O/N=C\c1c(Cl)ccc([N+](=O)[O-])c1Cl` , respond with its T/C.
107 % of control

Given `CCCCCCCCCCCCNNC(=O)OCCO` , respond with its T/C.
93 % of control

Given `S=C(SNC1CCCCC1)SNC1CCCCC1` , respond with its T/C.
94 % of control

Given `NC(=O)c1ccncc1` , respond with its T/C.
104 % of control

---

Answer each item with its documented T/C.
System: L1210 leukemia ip in BDF1 mice, survival T/C
Assay: NCI In Vivo Anticancer Drug Screen. Data for tumor model L1210 Leukemia (intraperitoneal) in B6D2F1 (BDF1) mice
Conditions: endpoint: mean survival time; dose: 400.0 mg/kg/injection; schedule: Q01DX009 (ip); vehicle: Klucel (hydroxypropylcellulose) (HPC); higher = longer survival
Inconclusive results and toxic doses are left out.

Given `Cc1c(Cl)cccc1NC(=O)Nc1ccccc1Cl` , respond with its T/C.
100 % of control

Given COC1=CC(C)C2CC3OC(O)CC4C(C)=C(OC)C(=O)C(C2(C)C1=O)C34C (stereo not given) , respond with its T/C.
94 % of control

Given `CCN(CC)C(=O)c1ccccc1C(=O)O` , respond with its T/C.
92 % of control

Given `CCCCCCCC(=O)CCC` , respond with its T/C.
102 % of control

Given `CCOc1ccccc1NC(=O)Nc1ccccc1` , respond with its T/C.
91 % of control

Given `O=C(c1ccccc1)N1CCN(C(=O)c2ccccc2)C1` , respond with its T/C.
104 % of control

Given `O=C(O)CCC(=O)Nc1cccc(C(F)(F)F)c1` , respond with its T/C.
100 % of control

Given `N#C/C(=C/c1cc(Cl)ccc1O)C(N)=O` , respond with its T/C.
100 % of control

Given `CCCCN/C(C)=C/C(=O)/C=C(\C)NCCCC` , respond with its T/C.
95 % of control

Given `Cc1cccc2c(Cl)c3cccc(C)c3nc12` , respond with its T/C.
102 % of control

Given `O=C(/C=C/c1ccccc1)N(Cc1ccccc1)c1ccccc1` , respond with its T/C.
103 % of control

Given `COc1ccc(C=O)c(Br)c1O` , respond with its T/C.
97 % of control

Given O=C(NC(CO)C(=O)OCc1ccccc1)OCc1ccccc1 (stereo not given) , respond with its T/C.
102 % of control

Given `O=C(Nc1ccc(F)cc1)OCCOc1ccc([N+](=O)[O-])cc1` , respond with its T/C.
93 % of control

Given `CCCCOC(=O)c1ccc(NC(=O)Nc2cc(C(F)(F)F)ccc2Cl)cc1` , respond with its T/C.
94 % of control

---

System: L1210 leukemia ip in BDF1 mice, survival T/C
Assay: NCI In Vivo Anticancer Drug Screen. Data for tumor model L1210 Leukemia (intraperitoneal) in B6D2F1 (BDF1) mice
Settings: endpoint: mean survival time; dose: 200.0 mg/kg/injection; schedule: Q04DX003 (ip); vehicle: saline; higher = longer survival
Inconclusive results and toxic doses are left out.
Answer each item with its documented T/C.

Given `CCOC(=O)CP(=O)(OCC)OCC` , respond with its T/C.
102 % of control

Given `O=[N+]([O-])c1cccc(OCCCCOc2ccccc2)c1` , respond with its T/C.
101 % of control

Given CCC(C)C(CCN1CCCCC1)(CNC(=O)CN(CC)CC)c1cccc2ccccc12 (stereo not given) , respond with its T/C.
103 % of control

Given c1ccc(OC2COC(Oc3ccccc3)CO2)cc1 (stereo not given) , respond with its T/C.
97 % of control

Given `Cc1ccc(NC(=O)/C=C/C(=O)Nc2ccc(C)cc2)cc1` , respond with its T/C.
100 % of control

Given CC(=O)OC1C=CC(Oc2ccc([N+](=O)[O-])cc2)OC1CO (stereo not given) , respond with its T/C.
91 % of control

Given `Cc1nc(-c2ccccc2)oc1-c1ccccc1` , respond with its T/C.
95 % of control

Given CCOC(=O)C1c2cccc(O)c2C=CN1C(C)=O (stereo not given) , respond with its T/C.
97 % of control

Given COC1OC(CNCCO)C2OC(C)(C)OC12 (stereo not given) , respond with its T/C.
98 % of control

Given `O=S(=O)(O)CCO` , respond with its T/C.
101 % of control

Given CC(=O)OC(C)CN(C)C (stereo not given) , respond with its T/C.
105 % of control

Given `CC(=N)N` , respond with its T/C.
90 % of control

Given `O=S1(=O)CC=CC1` , respond with its T/C.
97 % of control

Given `O=C(O)c1cccc(-c2ccccc2)c1` , respond with its T/C.
106 % of control

Given `O=C/C=C/Nc1ccccc1` , respond with its T/C.
108 % of control

Given `O=[N+]([O-])c1ccccc1C(=Nc1ccccc1)c1c(O)cc(O)cc1O` , respond with its T/C.
101 % of control

Given `Cc1ccc(C(C)C)c(OC(=O)Nc2cc(Cl)ccc2C)c1` , respond with its T/C.
92 % of control

Given `C[n+]1cccc(S(=O)(=O)[O-])c1` , respond with its T/C.
101 % of control

Given `COC(=N)c1ccc(O)c(C)c1` , respond with its T/C.
94 % of control

Given `COC(=O)c1ccc(C(=O)OC)[n+]([O-])c1` , respond with its T/C.
108 % of control

Given `CN=C(Nc1ccccc1C)SC` , respond with its T/C.
106 % of control

Given `CCOP(=O)(CSCC)OCC` , respond with its T/C.
100 % of control

Given CC1(Br)OC(=O)C(C)(Br)OC1=O (stereo not given) , respond with its T/C.
96 % of control

Given `c1cc2c(c3c1CCCC3)CCCC2` , respond with its T/C.
101 % of control

Given OCC1COc2ccccc2O1 (stereo not given) , respond with its T/C.
106 % of control
